Molecular target: murine IL-21R expressed on cells (murine, UniProt Q9JHX3 20-529)
Sequence (Q9JHX3 20-529 limits assumed): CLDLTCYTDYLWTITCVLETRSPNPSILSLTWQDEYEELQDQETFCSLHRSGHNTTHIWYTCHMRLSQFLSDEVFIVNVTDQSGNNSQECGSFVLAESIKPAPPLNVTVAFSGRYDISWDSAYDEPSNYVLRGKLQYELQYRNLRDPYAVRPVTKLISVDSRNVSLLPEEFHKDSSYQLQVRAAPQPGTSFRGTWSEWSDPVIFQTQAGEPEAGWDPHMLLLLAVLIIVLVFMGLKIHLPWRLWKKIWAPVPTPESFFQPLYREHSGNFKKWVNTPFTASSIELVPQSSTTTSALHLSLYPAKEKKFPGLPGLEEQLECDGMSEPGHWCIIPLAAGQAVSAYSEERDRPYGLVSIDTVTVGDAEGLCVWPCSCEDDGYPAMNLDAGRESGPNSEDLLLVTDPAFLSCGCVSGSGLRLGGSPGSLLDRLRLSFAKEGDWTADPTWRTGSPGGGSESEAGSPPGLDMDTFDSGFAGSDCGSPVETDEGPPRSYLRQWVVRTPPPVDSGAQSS
Assay: cell-based or functional assay
OBSERVED_PROPERTY: Murine IL-21R-BaF3 Proliferation IC50 (nM)
All answers are understood in nM, so give the number only.

Examples from the recorded data:
binder="AbS (antibody, human IgG1, V domains shown, Human IgG1 triple-mutant (L234A, L235A, G237A); Framework limits derived; also called VHP/VL6; VHPTM/VL6) VH: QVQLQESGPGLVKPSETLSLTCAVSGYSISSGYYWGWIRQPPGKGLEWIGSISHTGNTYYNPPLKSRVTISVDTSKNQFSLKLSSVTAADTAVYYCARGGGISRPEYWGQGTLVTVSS VL: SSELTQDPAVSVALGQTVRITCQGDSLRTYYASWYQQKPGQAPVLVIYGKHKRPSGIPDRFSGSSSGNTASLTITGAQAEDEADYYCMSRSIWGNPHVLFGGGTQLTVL" u=nM reported_measurement=0.04
binder="AbK (antibody, human IgG1, V domains shown, Full-length human IgG1 / human lambda, transient, conditioned medium; Framework limits derived; also called VH3/VL3) VH: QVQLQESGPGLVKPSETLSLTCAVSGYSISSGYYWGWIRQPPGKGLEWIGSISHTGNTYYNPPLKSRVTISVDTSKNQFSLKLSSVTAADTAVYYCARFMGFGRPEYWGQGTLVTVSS VL: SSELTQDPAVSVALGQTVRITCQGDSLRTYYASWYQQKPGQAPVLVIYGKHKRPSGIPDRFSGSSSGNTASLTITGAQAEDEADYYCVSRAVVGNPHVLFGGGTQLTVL" u=nM reported_measurement=0.079

# next binder below
input: Which Murine IL-21R-BaF3 Proliferation IC50 reading was recorded for the binder AbH (antibody, human IgG1, V domains shown, Full-length human IgG1 / human lambda, transient, conditioned medium; Framework limits derived; also called VHP/VL19) VH: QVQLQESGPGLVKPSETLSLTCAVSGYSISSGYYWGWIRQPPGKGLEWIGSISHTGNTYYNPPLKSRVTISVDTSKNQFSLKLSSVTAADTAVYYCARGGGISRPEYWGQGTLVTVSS VL: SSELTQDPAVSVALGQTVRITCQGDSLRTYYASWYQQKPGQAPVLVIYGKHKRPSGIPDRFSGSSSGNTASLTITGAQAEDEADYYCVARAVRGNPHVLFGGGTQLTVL ?
output: 0.327
